// cross-study collection: pIC50 for Type-2 angiotensin II receptor (Homo sapiens, UniProt P50052)
Note on pIC50: it is the negative log10 of concentration, concentration in mol/L.

// worked examples, pIC50 included
compound	measured
CCCc1nc(CNC(=O)OC(C)(C)C)c(C(=O)O)n1Cc1ccc(-c2ccccc2-c2nn[nH]n2)cc1	5.40
CCCc1nc(CN2CCN(c3ccccn3)CC2)c(C(=O)O)n1Cc1ccc(-c2ccccc2-c2nn[nH]n2)cc1F	6.70
CC(=O)N(CCCc1ccccc1)[C@H]1C[C@@H](C(=O)O)N(C(=O)C(c2ccccc2)c2ccccc2)C1	6.62
Cc1nc2ccc(NC(=O)N(C)C)cc2c(=O)n1Cc1ccc(-c2ccccc2S(=O)(=O)NC(=O)OCCC2CC2)cc1F	7.92
CCCc1nc(CN2CCN(c3ccccc3)C[C@H]2C)c(C(=O)O)n1Cc1ccc(-c2ccccc2-c2nnn[nH]2)cc1	7.15

[ask] What value of pIC50 on Type-2 angiotensin II receptor (Homo sapiens, UniProt P50052) does CCCc1nc(CC)c(C(=O)OC(C(=O)c2ccccc2)c2ccccc2)n1Cc1ccc(-c2ccccc2S(=O)(=O)NC(=O)OCCC(C)C)cc1F (centres undefined) have?
[reply] 8.52

[ask] What value of pIC50 on Type-2 angiotensin II receptor (Homo sapiens, UniProt P50052) does "CCCc1nc(CC)c(C(=O)OCc2ccccc2C(=O)c2ccccc2)n1Cc1ccc(-c2ccccc2S(=O)(=O)NC(=O)OC)cc1" have?
[reply] 8.00

[ask] What value of pIC50 on Type-2 angiotensin II receptor (Homo sapiens, UniProt P50052) does "CO/C(C)=C1/NC(=O)[C@H]([C@@H](C)O)NC(=O)c2csc(n2)-c2cc(O)c(-c3nc(C(=O)O)cs3)nc2-c2csc(n2)[C@@H]2COC(=O)c3c4c5c(cccc5n3O)COC(=O)[C@@H](O[C@H]3C[C@](C)(O)[C@H](N(C)C)[C@H](C)O3)[C@@H](OC4)[C@H](NC(=O)c3csc1n3)c1nc(cs1)C(=O)N2" have?
[reply] 5.95

[ask] What value of pIC50 on Type-2 angiotensin II receptor (Homo sapiens, UniProt P50052) does "CO/C(C)=C1/NC(=O)[C@H]([C@@H](C)O)NC(=O)c2csc(n2)-c2cc(O)c(-c3nc(C(=O)N4CCN(C)CC4)cs3)nc2-c2csc(n2)[C@@H]2COC(=O)c3c4c5c(cccc5n3O)COC(=O)[C@@H](O[C@H]3C[C@](C)(O)[C@H](N(C)C)[C@H](C)O3)[C@@H](OC4)[C@H](NC(=O)c3csc1n3)c1nc(cs1)C(=O)N2" have?
[reply] 6.99
